I'd be grateful if you could share measured pIC50 for these entries.
System: H9
ASSAY: Cytotoxicity against human H9 cells
Format: cell-based
EXPERIMENTAL_CONTEXT: Homo sapiens, H9
One number for each entry, as −log10 of the molar value.

Here is how some compounds turned out for pIC50.
COc1ccc2c3c([nH]c2c1)C(C)N(N=O)CC3 (stereo not drawn)
4.25
COc1ccc2c(c1)[nH]c1c(/C=C/c3ccc([N+](=O)[O-])cc3)nccc12
4.81
CC1=NCCc2c1[nH]c1ccccc21
3.96
c1ccc2c(c1)[nH]c1cnccc12
3.85
Cc1nccc2c1[nH]c1cc(OC(=O)C34CCC(C)(C(=O)O3)C4(C)C)ccc12 (stereo not drawn)
4.23
COc1ccc2c(c1)[nH]c1c(C)[n+](C)ccc12.[I-]
4.30

Requested read-out: pIC50. Entry: `COc1cc(C[C@H]2COC(=O)[C@@H]2Cc2ccc(OC(C)=O)c(OC)c2)ccc1OC(C)=O` 4.31

* * *

ASSAY: Therapeutic index, ratio of IC50 for human H9 cells to EC50 for HIV1
Format: cell-based
EXPERIMENTAL_CONTEXT: h9
Response field label: string, one of label 1 (Ratio IC50/EC50 strictly below 6) or label 0.

CC1=NCCc2c1[nH]c1ccccc21
label 1
c1ccc2c(c1)[nH]c1cnccc12
label 1
CC(=O)Oc1ccc2c(c1)[nH]c1c(C)nccc12
label 0
COc1cc2[nH]c3c(C)nccc3c2cc1Br
label 1
COc1ccc2c(c1)[nH]c1c(C)[n+](C)ccc12.[I-]
label 1
CCC[n+]1ccc2c([nH]c3cc(OC)ccc32)c1C.[I-]
label 1
COS(=O)(=O)O.Cc1nccc2c1[nH]c1ccccc12
label 0
COc1ccc2c3ccn(C)c(C)c-3nc2c1
label 0
Br.COc1cc2[nH]c3c(C)nccc3c2cc1Br
label 0
COc1ccc2c(c1)[nH]c1c(C)nccc12
label 0

For this compound, is Ratio IC50/EC50 lower than 6? `CCCn1c2cc(OC)ccc2c2cc[n+](C)c(C)c21.[Br-]` label 1

What would you report for `Cc1[nH]ccc2c1[nH]c1cc(=O)ccc12` ? label 0

// next record `CCOc1ccc2c(c1)[nH]c1c(C)nccc12` label 1

* * *

Tested on: H9
ASSAY: Cytotoxicity against human H9 cells
Assay type: cell-based
EXPERIMENTAL_CONTEXT: Homo sapiens, H9
For each entry below, report its log10 of IC50 value.
Scale: decimal log of IC50, IC50 in µM.

Sample answers from the record:
CCCCn1c2cc(OC)ccc2c2ccnc(C)c21
0.89
CCOc1ccc2c(c1)[nH]c1c(C)nccc12
1.41
Cc1cc(O)n2c(n1)nc1ccccc12
2.07
CCC[n+]1ccc2c([nH]c3cc(OC)ccc32)c1C.[I-]
1.74
COc1ccc2c(c1)[nH]c1c(C)nccc12 [HARMINE]
1.42
CCCCCCCCCCCCCCCCOc1ccc2c(c1)[nH]c1c(C)nccc12
1.63
CCn1c2cc(OC)ccc2c2ccnc(C)c21
0.93
CCCCCCCCCCOc1ccc2c(c1)[nH]c1c(C)nccc12
0.77
CC(=O)Oc1ccc2c(c1)[nH]c1c(C)nccc12
2.03
Cc1nccc2c1[nH]c1ccccc12 [HARMAN]
2.05

Then there is this molecule:
log10 of IC50 for COc1cc([C@@H]2OC[C@@H]3[C@H]2CO[C@H]3c2ccc(O)c(OC)c2)ccc1O [(+)-PINORESINOL] ? 1.83

This collection of values is drawn from ChEMBL document CHEMBL1155732.
